Listed here are binders together with their documented functional reporter gene assay (% inhibition), 0.04 µg/mL mAb.
- assaySystem: T1, human IL-1RAcP on 293T/17-FR cells (human, UniProt Q9NPH3 21-570)
- T1 sequence (looked up): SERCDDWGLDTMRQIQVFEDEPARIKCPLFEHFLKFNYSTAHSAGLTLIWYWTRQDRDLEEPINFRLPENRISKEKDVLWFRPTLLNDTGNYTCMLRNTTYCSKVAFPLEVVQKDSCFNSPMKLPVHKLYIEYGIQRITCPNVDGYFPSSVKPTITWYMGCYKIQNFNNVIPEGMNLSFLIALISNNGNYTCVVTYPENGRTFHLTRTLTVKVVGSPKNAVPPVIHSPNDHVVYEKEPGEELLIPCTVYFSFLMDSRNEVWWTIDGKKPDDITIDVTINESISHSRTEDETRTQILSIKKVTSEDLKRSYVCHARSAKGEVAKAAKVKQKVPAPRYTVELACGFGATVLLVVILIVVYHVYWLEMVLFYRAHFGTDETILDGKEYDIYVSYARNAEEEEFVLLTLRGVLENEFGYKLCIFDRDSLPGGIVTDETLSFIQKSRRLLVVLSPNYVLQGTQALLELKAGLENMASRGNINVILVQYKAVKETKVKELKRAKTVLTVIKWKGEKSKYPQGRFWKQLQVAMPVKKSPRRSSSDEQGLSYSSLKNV
- methodDescription: cell-based or functional assay
endpoint: functional reporter gene assay (% inhibition), 0.04 µg/mL mAb

* P013.S.02.B.C03 (antibody, V domains shown, rabbit monoclonal antibody; also called P013.A.00085.G07) VH: QSLEESGGRLVTPGTPLTLTCTVSGIDLSSYAMGWVRQAPGKGLEYIGIISNSGTTYYASWAKGRFTISKTSSTTVDLKMTSPTTEDTATYFCARDRYANTHGIFSLWGQGTLVTVSS VL: DIVMTQTPASVSAPVGGTVTINCQASESIYSDLAWYQQKPGQPPKLLISFVATLESGVPSRFKGSGSGTEFTLTISDLESADAATYYCQCTYGGSGSGNGAAFGGGTEVVVK | 21%
* P013.S.01.B.D06 (antibody, V domains shown, rabbit monoclonal antibody; also called P013.A.00029.D02) VH: QSLEESGGDLVKPGASLTLTCTASGFSFSSSYYMCWVRQAPGKGLEWIACIYAGSSGVTYYASWAKGRFTISDTSSTTVTLQMTSLTAADTATYFCASETDGNYFNLWGPGTLVTVSS VL: ALVMTQTPSPVSAAVGGTVTINCQASEDIYSNLAWFQQKPGQPPKLLIYRASTLASGVPSRFSGSGSGTEFTLTISGLQSDDAATYYCLGVYTYSTDIHAFGGGTEVVVK | 24%
* P013.S.02.B.F05 (antibody, V domains shown, rabbit monoclonal antibody; also called P013.A.00109.B04) VH: RSLEESGGDLVKPGTSLTLTCTASGFSFSGNYYMCWVRQAPGKGLEWIACIVVGSGGNTYYAGWAKRRFTISKTSSTTVTLQMTSLTAADTATYFCASGSYDDYGDYWYFTLWGQGTLVTVSS VL: AIDMTQTPSPASAGVGDTVTINCQASENIYNFLAWYQQKPGHSPKLLIYVASKLASGVPSRFKGSGSGTQFTLTISDVQSDDAATYYCQQTYRYNDGDTAFGGGTEVVVK | 15%
